Cited source: PubChem BioAssay

test: basal CRE-LacZ reporter activity in PC12 – cell-based, unstimulated, primary screen (AID 1145); details: no forskolin, luminescence, 4.5 h, higher = more signal, called active from +8 up or from −8 down
reported-endpoint: z-score
No unit in the answer, only the number.

substance-smiles: CC(=O)NCCCC[C@@H]1NC(=O)[C@H]2C[C@@H](C(=O)O)[C@@H](c3ccc(O)cc3)N2C1=O
reported-endpoint: z-score
value: 5.71

substance-smiles: COC(=O)c1c(CC[C@@H](CO)NC(=O)NCCc2c[nH]c3ccccc23)oc(C(=O)Cc2ccccc2)c1C(=O)OC
reported-endpoint: z-score
value: 1.37

Suppose we examine the compound C=CC[C@@]1(C(=O)N2CCCCC2)N=C(c2ccc(OCCCO)cc2)O[C@@H]1c1ccccc1N=[N+]=[N-] ; what z-score value has been reported?
4.01

Suppose we examine the compound CCCNC(=O)[C@@H]1c2ccccc2C(=O)N(Cc2ccccc2OC)[C@H]1c1ccc(CO)cc1 ; what z-score value has been reported?
0.001

Suppose we examine the compound COCCOC(=O)N1C(=O)[C@@]2(c3ccccc31)[C@H](c1ccc(OCCO)cc1)N1[C@H](c3ccccc3)[C@H](c3ccccc3)OC(=O)[C@H]1[C@@H]2C(=O)N1CCc2cc(OC)c(OC)cc2C1 ; what z-score value has been reported?
0.623

Suppose we examine the compound COCC(=C=CC[C@@H](O)c1ccc(OCCO)cc1)C[C@@H](O)c1ccccn1 ; what z-score value has been reported?
-0.0602

Suppose we examine the compound CCCC=C(CCC)[C@@H](NC(=O)OCC(C)C)c1ccccc1 ; what z-score value has been reported?
0.766

Suppose we examine the compound COC(=O)[C@@]1(Cc2ccc(OC)cc2)[C@H]2c3cc(C(=O)N4CCCC4)n(CCSCCO)c3C[C@H]2CN1C(=O)c1ccccc1 ; what z-score value has been reported?
1.34

----------
experiment: growth effects on S. cerevisiae YJM789 – YJM789 clinical isolate, OD600, 24 h, basal, primary screen (AID 1089); conditions: higher = more signal, called active from +8 up or from −8 down;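 also: growth of clinical yeast isolate S. cerevisiae YJM 789 seeded 1000 cells per well; test concentration not given here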
The source made the active and inactive calls.
Catalogue of z-score readings, one per entry.

Worked set:
compound: CC(C)Cc1ccc(CN2CC[C@@H](N)C2)cc1
z-score: -1.18 (inactive)
--
compound: COC(=O)[C@@]1(Cc2ccccc2)[C@H]2c3cc(C(=O)N(C)C)n(CCc4c[nH]c5ccc(O)cc45)c3C[C@H]2CN1C(=O)c1ccccc1
z-score: -1.09 (inactive)
--
compound: O=C1C2C=CC(C(O)c3cc(C(F)(F)F)cc(C(F)(F)F)c3)N(Nc3ccccc3)C2C(=O)N1c1ccccc1 (stereo not drawn)
z-score: 1 (inactive)
--
compound: CN1C(=O)C2C=CC(C(O)c3ccccc3)N(N3CCCCC3)C2C1=O (stereo not drawn)
z-score: 0.201 (inactive)
--
compound: Cc1ccc([C@H]2C(C(=O)O)=CCN2S(=O)(=O)c2ccc(C)cc2)cc1
z-score: -0.76 (inactive)

Suppose we examine the compound CCCC=C(CCC)[C@@H](NC(=O)OCC(C)C)c1ccccc1 ; what z-score value has been reported?
0.69 (inactive)

Suppose we examine the compound C#CCN1[C@@H](Cc2ccc(O)cc2)C(=O)O[C@H](Cc2ccccc2)[C@@H]1/C=C/C1CC1 ; what z-score value has been reported?
-0.257 (inactive)

Suppose we examine the compound CCOC(=O)C[C@H]1[C@H](OC(=O)c2ccc(C(=O)c3ccccc3)cc2)[C@@H](NC(=O)c2ccccc2)c2cc(OCCCO)ccc2N1C(=O)c1ccccc1 ; what z-score value has been reported?
-0.178 (inactive)
